Structures can show the parent of a compound that is named as a salt.
ATTRIBUTE_MEASURED: melting point (°C)
// return numeric value only (unit: °C, not printed)

Previously resolved entries follow.
COMPOUND: COc1ccc(-c2[nH]nc3c2C(=O)c2c(NC(=O)C4CC4)cccc2-3)cc1
ATTRIBUTE_MEASURED: melting point
REPORTED: 289
//
COMPOUND: NC(=O)N1CCC(c2[nH]nc3c2C(=O)c2c(NC(=O)NN4CCOCC4)cccc2-3)CC1 (as salt: TFA)
ATTRIBUTE_MEASURED: melting point
REPORTED: 258
//
COMPOUND: NCC1CCN(CC(=O)Nc2cccc3c2C(=O)c2c-3n[nH]c2-c2ccc(N3CCNCC3)cc2)CC1 (as salt: TFA)
ATTRIBUTE_MEASURED: melting point
REPORTED: 239
//
COMPOUND: COc1ccc(-c2[nH]nc3c2C(=O)c2c(NC(=O)Cc4ccc(NC(=O)CN)cc4)cccc2-3)cc1
ATTRIBUTE_MEASURED: melting point
REPORTED: 228
//
COMPOUND: O=C(Nc1cccc2c1C(=O)c1c-2n[nH]c1-c1ccc(C(=O)NN2CCCCC2)s1)NN1CCOCC1 (as salt: TFA)
ATTRIBUTE_MEASURED: melting point
REPORTED: 189

Please examine the following record next.
Q: # melting point lookup, item O=C(Nc1cccc2c1C(=O)c1c-2n[nH]c1-c1ccc(C(=O)NC2CCCCC2)s1)NN1CCOCC1 (as salt: TFA)
A: 264

###

Counter-ions that a name gives are not always drawn.
ATTRIBUTE_MEASURED: melting point (°C)
// return numeric value only (unit: °C, not printed)

Previously resolved entries follow.
COMPOUND: CC1CCCC(C)N1NC(=O)Nc1cccc2c1C(=O)c1c-2n[nH]c1-c1ccc(N2CCNCC2)cc1 (stereo not drawn) (as salt: TFA)
melting point (°C): 270
--
COMPOUND: O=C(Nc1cccc2c1C(=O)c1c-2n[nH]c1C1CCN(C(=O)N2C[C@@H]3C[C@H]2CN3)CC1)NN1CCOCC1 (as salt: TFA)
melting point (°C): 196
--
COMPOUND: COc1ccc(-c2[nH]nc3c2C(=O)c2c(NC(=O)Cc4ccc(N)cc4)cccc2-3)cc1
melting point (°C): 283
--
COMPOUND: COc1ccc(CC(=O)Nc2cccc3c2C(=O)c2c-3n[nH]c2-c2ccc(OC)cc2)cc1
melting point (°C): 280
--
COMPOUND: COc1ccc(-c2[nH]nc3c2C(=O)c2c(NC(=O)C4CCC4)cccc2-3)cc1
melting point (°C): 297

Q: # melting point lookup, item CN(C)C1CCN(C(=O)N2CCC(c3[nH]nc4c3C(=O)c3c(NC(=O)NN5CCOCC5)cccc3-4)CC2)CC1 (as salt: TFA)
A: 172

Q: Now consider `COc1ccc(-c2[nH]nc3c2C(=O)c2c(NC(=O)CN4CCCCC4)cccc2-3)cc1` .
A: 291

Q: Now consider CC(C)(C)OC(=O)NCCCCC(=O)N1CCC(c2[nH]nc3c2C(=O)c2c(NC(=O)NN4CCOCC4)cccc2-3)CC1 (as salt: TFA) .
A: 98

Q: Now consider O=C(Nc1cccc2c1C(=O)c1c-2n[nH]c1-c1ccc(C(=O)N2CCNCC2)s1)NN1CCOCC1 (as salt: TFA) .
A: 241

Q: Now consider `COc1ccc(-c2[nH]nc3c2C(=O)c2c(NC(=O)CN4CCCC4)cccc2-3)cc1` .
A: 279

Q: Now consider CCOC(=O)N1CCC(c2[nH]nc3c2C(=O)c2c(NC(=O)NN4CCOCC4)cccc2-3)CC1 (as salt: TFA) .
A: 206

Q: Now consider `CCCC(=O)Nc1cccc2c1C(=O)c1c-2n[nH]c1-c1ccc(OC)cc1` .
A: 282

###

Counter-ions that a name gives are not always drawn.
ATTRIBUTE_MEASURED: melting point (°C)
// return numeric value only (unit: °C, not printed)

Previously resolved entries follow.
COMPOUND: NCCCCC(=O)N1CCC(c2[nH]nc3c2C(=O)c2c(NC(=O)NN4CCOCC4)cccc2-3)CC1 (as salt: TFA)
melting point [°C]: 103

COMPOUND: CN1C[C@@H]2C[C@H]1CN2C(=O)N1CCC(c2[nH]nc3c2C(=O)c2c(NC(=O)NN4CCOCC4)cccc2-3)CC1 (as salt: TFA)
melting point [°C]: 225

COMPOUND: CO[C@H]1CC[C@@H](C(=O)N2CCC(c3[nH]nc4c3C(=O)c3c(NC(=O)NN5CCOCC5)cccc3-4)CC2)CC1 (as salt: TFA)
melting point [°C]: 178

COMPOUND: COc1ccc(-c2[nH]nc3c2C(=O)c2c(NC(=O)Cc4ccccc4)cccc2-3)cc1
melting point [°C]: 280

Please examine the following record next.
Q: # melting point lookup, item CC(=N)N1CCN(c2ccc(-c3[nH]nc4c3C(=O)c3c(NC(=O)NN5CCOCC5)cccc3-4)cc2)CC1 (as salt: TFA)
A: 240

###

Counter-ions that a name gives are not always drawn.
Overview of reported melting point across a group of compounds:
// return numeric value only (unit: °C, not printed)

Previously resolved entries follow.
COMPOUND: O=C(Nc1cccc2c1C(=O)c1c-2n[nH]c1-c1ccc(C(=O)NC2CCNCC2)s1)NN1CCOCC1 (as salt: TFA)
melting point [°C]: 224
//
COMPOUND: COc1ccc(-c2[nH]nc3c2C(=O)c2c(NC(=O)Cc4ccccc4OC)cccc2-3)cc1
melting point [°C]: 255
//
COMPOUND: CN(C)C1CCN(C(=O)c2ccc(-c3[nH]nc4c3C(=O)c3c(NC(=O)NN5CCOCC5)cccc3-4)s2)C1 (stereo not drawn) (as salt: TFA)
melting point [°C]: 216
//
COMPOUND: COC(C)(C)[C@@H]1CCCN1NC(=O)Nc1cccc2c1C(=O)c1c-2n[nH]c1-c1ccc(N2CCNCC2)cc1 (as salt: TFA)
melting point [°C]: 218

Please examine the following record next.
Q: # melting point lookup, item O=C(Nc1cccc2c1C(=O)c1c-2n[nH]c1C1CCN(C(=O)n2ccnc2)CC1)NN1CCOCC1 (as salt: TFA)
A: 202

###

Overview of reported melting point across a group of molecules:
Counter-ions that a name gives are not always drawn.
// return numeric value only (unit: °C, not printed)

Previously resolved entries follow.
MOLECULE: COC(=O)[C@H]1CC[C@H](c2[nH]nc3c2C(=O)c2c(NC(=O)NN4CCOCC4)cccc2-3)CC1 (as salt: TFA)
melting point, °C: 259
--
MOLECULE: O=C(CN1CCOCC1)Nc1cccc2c1C(=O)c1c-2n[nH]c1-c1ccc(N2CCNCC2)cc1 (as salt: TFA)
melting point, °C: 259
--
MOLECULE: CCc1ccc(-c2[nH]nc3c2C(=O)c2c(NC(C)=O)cccc2-3)cc1
melting point, °C: 294

Please examine the following record next.
Q: # melting point lookup, item `COc1ccc(-c2[nH]nc3c2C(=O)c2c(NC(=O)CN4CCNCC4)cccc2-3)cc1`
A: 277

###

Structures can show the parent of a compound that is named as a salt.
Overview of reported melting point across a group of molecules:
// return numeric value only (unit: °C, not printed)

MOLECULE: CN1CCC(CNC(=O)c2ccc(-c3[nH]nc4c3C(=O)c3c(NC(=O)NN5CCOCC5)cccc3-4)s2)C1 (stereo not shown) (as salt: TFA) [Example CLXXXIII]
melting point (°C): 151

Please examine the following record next.
Q: # melting point lookup, item COc1ccc(-c2[nH]nc3c2C(=O)c2c(NC(=O)CNCCO)cccc2-3)cc1 [Example XXIV]
A: 243

###

Overview of reported melting point across a group of compounds:
Where a name gives a salt, the structure may show the parent alone.
// return numeric value only (unit: °C, not printed)

COMPOUND: O=C(Nc1cccc2c1C(=O)c1c-2n[nH]c1-c1ccc(N2CCNCC2)cc1)NN1CCOCC1 (as salt: TFA) [Example CCXI]
UNITS_SYMBOL: °C
melting point: 263

Q: # melting point lookup, item CCNCC(=O)Nc1cccc2c1C(=O)c1c-2n[nH]c1-c1ccc(OC)cc1 [Example XXXI]
A: 250

Q: Now consider CC(C)(C)OC(=O)NCCCC(=O)N1CCC(c2[nH]nc3c2C(=O)c2c(NC(=O)NN4CCOCC4)cccc2-3)CC1 [Example CCLXXVI] .
A: 73

###

Counter-ions that a name gives are not always drawn.
Overview of reported melting point across a group of molecules:

Previously resolved entries follow.
MOLECULE: O=C(Nc1cccc2c1C(=O)c1c-2n[nH]c1-c1ccc(C(=O)[C@]23CN[C@H](CN2)C3)s1)NN1CCOCC1 (as salt: TFA)
ATTRIBUTE_MEASURED: melting point
REPORTED: > 300 °C
--
MOLECULE: COc1ccc(-c2[nH]nc3c2C(=O)c2c(NC(=O)Cc4cccc(OC)c4)cccc2-3)cc1
ATTRIBUTE_MEASURED: melting point
REPORTED: > 300 °C
--
MOLECULE: O=C(Nc1cccc2c1C(=O)c1c-2n[nH]c1-c1ccc(C(=O)N2CCN(CCO)CC2)s1)NN1CCOCC1 (as salt: TFA)
ATTRIBUTE_MEASURED: melting point
REPORTED: 186 °C
--
MOLECULE: O=C(Nc1cccc2c1C(=O)c1c-2n[nH]c1-c1ccc(C(=O)N2CCN(CC3CC3)CC2)s1)NN1CCOCC1 (as salt: TFA)
ATTRIBUTE_MEASURED: melting point
REPORTED: 211 °C
--
MOLECULE: CN1CCN(c2ccc(-c3[nH]nc4c3C(=O)c3c(NC(=O)NN5CCOCC5)cccc3-4)cc2)CC1 (as salt: TFA)
ATTRIBUTE_MEASURED: melting point
REPORTED: 245 °C

Please examine the following record next.
Q: # melting point lookup, item `COc1ccc(-c2[nH]nc3c2C(=O)c2c(NC(=O)CN4CCC(CN)CC4)cccc2-3)cc1`
A: > 300 °C
